Tested on: EKVX
Test method notes: NCI tumour cell line growth inhibition, 48 h
Active and inactive are the calls of the source. No stated cut-off is given here; in the data, active = GI50 up to about 1.1 µM and inactive = higher.
Reported metric: GI50

Given the entry "O=C1C(Cl)=C(Cl)C(=O)N1c1cccc(C(F)(F)F)c1" , report its measured GI50.
> 100 µM (inactive)

What value of GI50 has been reported for the following compound? "N#C/C(=C\c1cc(F)cc(F)c1)c1ccccn1"
13 µM (inactive)

Report GI50 for CC(=O)C1CC2(c3ccccc3)C(=O)c3ccccc3N2O1 (stereo not drawn) please.
> 100 µM (inactive)

---

Test system: HCC 2998
Test method notes: NCI tumour cell line growth inhibition, 48 h
The source made the active and inactive calls. No stated cut-off is given here; in the data, active = GI50 up to about 1.1 µM and inactive = higher.
Use one of these outcomes when replying: label 1 (active), label 0 (inactive)

Please share the test call associated with "O=C(CC/C(CC(=O)c1ccc(Cl)cc1)=N\O)Nc1cccc(Cl)c1" .
label 0

Test call, this compound: "C/C=C/[P+](c1ccccc1)(c1ccccc1)c1ccccc1"
label 1

What did the test return for "Nc1ccc2c(=O)cc(-c3cccs3)[nH]c2n1" ?
label 0

# outcome recorded in this test, key = CCCNC(=O)C1C(=O)C(=O)N(CCC)C1=O (centres undefined)
label 0

Identify the outcome logged in this assay for the compound shown: COC(O)C(=O)c1c2c(cc3c1CCC3)CCCC2 (centres undefined)
label 0

Could you kindly confirm the outcome this assay logged for "CCOC(=O)Cn1c(=O)c2nc(SC)sc2n(-c2ccccc2)c1=S" ?
label 0

Could you please tell me the result logged for "Cn1c2ccccc2n2c(=O)c3c(c(C#N)c12)CCCC3" in this assay?
label 0

Dear all, I need the recorded test outcome for "CC(C)(O)[C@H](CCO)O[Si](c1ccccc1)(c1ccccc1)C(C)(C)C" , thank you.
label 0

// param item: COC(=O)[C@H]1C[C@H]1NC(=O)C(CC(=O)OCc1ccccc1)NC(=O)OCc1ccccc1 (some centres undefined) ; yields the recorded call
label 0

Tell me the assay call for "COc1cc([N+](=O)[O-])ccc1NC1=CC(=O)CCC1" please.
label 0

Tell me the recorded outcome of this test for Nc1nc(N)c2ncn(CC(CO)CC(c3ccccc3)P(=O)(O)O)c2n1 (centres undefined) .
label 0

What did this assay record as the result for "O=C(O)c1ccc(Nc2nc3nn(Cc4ccccc4)cc3c(=O)s2)cc1" ?
label 0

Query: recorded result category for CC1CC(C)(O)CC(C(O)CC2CC(=O)NC(=O)C2)C1=O (centres undefined) in this test
label 1

GET /call?item= "NC(=O)c1ccc[n+](C2=C([N-]S(=O)(=O)c3ccccc3)C(=O)c3ccccc3C2=O)c1" returns the recorded outcome of this test.
label 0

---

Exercise: for every item that follows, state its recorded GI50.
System: A498
Test method notes: NCI tumour cell line growth inhibition, 48 h
Active and inactive are the calls of the source. Cut-off read from the data, not from the text of the source: active = GI50 up to about 1.1 µM and inactive = higher.

Request - read-out GI50 | tested on A498 | compound "CSC1=Nc2ccccc2-c2nc3ccccc3cc2C1"
> 100 µM (inactive)

Quick check: GI50 on A498, item "CN(C)Cc1cc(C(=O)/C=C/c2ccc(Cl)cc2Cl)cc(CN(C)C)c1O" ?
2.4 µM (inactive)

Given the entry "COc1ccc2nc3c([N+](=O)[O-])ccc4c3c(c2c1)N=CN4CCCN(C)C" , what GI50 was observed with A498?
5.6 µM (inactive)

# returns recorded GI50 (system: A498) for CCCCCCCC1C(C)c2c([nH]c3ccccc23)C2C(=O)N(c3ccc(OC)cc3)C(=O)C21 (centres undefined)
2.67 µM (inactive)

---

System: OVCAR-5
Test method notes: NCI tumour cell line growth inhibition, 48 h
The source made the active and inactive calls. No stated cut-off is given here; in the data, active = GI50 up to about 1.1 µM and inactive = higher.
Choose one outcome from this list and give only that: yes (1) for active, no (0) for inactive

// outcome(item) with item = COc1ccc2c(c1)CCCN1CCc3ccccc3C21 (centres undefined)
no (0)

Per the assay record, what outcome was assigned to "O=C(OCc1ccccc1)c1ccccc1-c1c2ccc(=O)cc-2oc2cc(OCc3ccccc3)ccc12" ?
no (0)

Given "CCOC(=O)C(=O)Nc1ccccc1C" , state the outcome it received in this test.
no (0)

Hey, what did the test say about "O=C(Cc1ccccc1)NS(=O)(=O)c1ccccc1" ?
no (0)

For this compound, state the assay outcome: "O=CNCCCN1CCN(CCCNC=O)CC1"
no (0)

Please share the test call associated with "C[C@@H]1C[C@H](O)[C@]2(O)O[C@@H]3C[C@@]4(C=O)[C@@H](CC[C@@H]5[C@@H]4CC[C@]4(C)[C@@H](C6=CC(=O)OC6)CC[C@]54O)C[C@H]3O[C@@H]2O1" .
yes (1)

Dear colleague, could you share the recorded outcome for "Cc1cccc(N(CC(=O)O)S(=O)(=O)c2ccccc2)c1" when you have a moment?
no (0)

Assay outcome for "N#Cc1c(N)sc2c1-c1ccccc1OC2" : what was it?
no (0)

How did this test come out for "CC(=O)OC(C)(C)/C=C/C(=O)[C@](C)(O)[C@H]1[C@H](O)C[C@@]2(C)[C@@H]3CC=C4[C@@H](C=C(O)C(=O)C4(C)C)[C@]3(C)C(=O)C[C@]12C" ?
yes (1)

In this assay, the call recorded for COC(=O)CCC(NC(=S)N/N=C(\C)c1cccs1)C(=O)OC (centres undefined) was what?
no (0)

Just curious, what result did "CC(C)(C)Sc1nnc(SC(C)(C)C)c2c(SC(C)(C)C)nnc(O)c12" get here?
no (0)

Recorded test call requested for "COc1cc(/C=C(\C)c2ccc3c(c2)OCO3)cc(OC)c1OC"
no (0)

Could you kindly confirm the outcome this assay logged for Cc1ccc(C2OC(COCc3ccc(Cl)cc3)C(OCc3ccc(Cl)cc3)C2O)cc1 (centres undefined) ?
no (0)

I'd appreciate the recorded outcome for c1ccc2c(C3CCN(CCN4CCOCC4)C3)c[nH]c2c1 (centres undefined) from this test.
no (0)

Test call, this compound: O=C1CCC(NC(=O)c2ccccc2)C(=O)N1 (centres undefined)
no (0)

Per the assay record, what outcome was assigned to "[N-]=[N+]=NC(c1ccccc1)(c1ccccc1)c1ccccc1" ?
no (0)

For "CSC1=Nc2ccccc2-c2nc3ccccc3cc2C1" , which call appears in the assay record?
no (0)

Fill in: this test's call for "CC(C)(C)c1ccc(C(C)(C)C)c(N2C(=O)[C@@H]3[C@@H]4C=C[C@@H](C4)[C@]3(C)C2=O)c1" is ___
no (0)

For "Cn1c(=S)c2nc(SCCCc3ccccc3)[nH]c2n(C)c1=O" , which call appears in the assay record?
no (0)

---

Answer each item with its documented GI50.
Test system: M14
Test method notes: NCI tumour cell line growth inhibition, 48 h
Active and inactive are the calls of the source. Rule as the data show it: active = GI50 up to about 1.1 µM and inactive = higher. Starred links: 1 amine or outer side, 2 acyl side, 3 side chain; linkers in the order of their positions; H or OH if unused. Positions of bridges follow the written chain, without caps; N, C: chain ends. Non-standard residues stand in square brackets, D forms with d. Residues, ends and D or L forms follow the SMILES beside them. Chains are numbered I, II in the order given. Actinocin(9to1) = Cc1c2oc3c(C)ccc(C(=O)[*:1])c3nc-2c(C(=O)[*:2])c(N)c1=O; NMeV = CN[CH](C(=O)O)C(C)C; Sar = CNCC(=O)O

Return reported GI50; argument: "N#Cc1c(N)sc2c1-c1ccccc1OC2"
56.5 µM (inactive)

What measured GI50 goes with COC(=O)C(Cc1c[nH]c2ccccc12)NP(=O)(O)OCC1OC(n2cc(F)c(=O)[nH]c2=O)CC1O (stereo not drawn) ?
30.8 µM (inactive)

If you can, please state the reported GI50 value of Cc1c2oc3c(C)ccc(C(=O)NC4C(=O)NC(Cc5ccc(O)cc5)C(=O)N5CCCC5C(=O)N(C)CC(=O)N(C)C(C(C)C)C(=O)OC4C)c3nc-2c(C(=O)NC2C(=O)NC(Cc3ccc(O)cc3)C(=O)N3CCCC3C(=O)N(C)CC(=O)N(C)C(C(C)C)C(=O)OC2C)c(N)c1=O (stereo not drawn) (I: TYP[Sar][NMeV] / II: TYP[Sar][NMeV]; ester I:1-I:C, II:1-II:C; linker I:N-II:N via Actinocin(9to1); configuration not given here) .
2.55 µM (inactive)

// returns reported GI50 for input "CSc1c(C(=O)Nc2ccccc2)c(N)nn1-c1ccccc1"
> 100 µM (inactive)

What GI50 value was documented for this compound, "CCN(CC)C(=O)CCN1CC1" ?
> 10 µM (inactive)

Fill blank: measured GI50 of the compound "CCSC1=N/C(=C/c2ccccc2O)C(=O)N1" is ____.
> 100 µM (inactive)

// GI50 lookup, key: Cc1cc(Cl)ccc1NC1=NC(=O)C(CC(=O)Nc2ccc([N+](=O)[O-])cc2[N+](=O)[O-])S1 (stereo not drawn)
24.2 µM (inactive)

I would be grateful if you could share the reported GI50 for O=C1CC(Sc2nc3ccc(I)cc3c(=O)n2Cc2ccccc2)C(=O)NN1 (stereo not drawn) .
19.6 µM (inactive)

Just for reference, ChEMBL document CHEMBL1201862 is where these values come from.
